Entry source: patent US8916711B2

Tested on: SW-620
Doc: threshold 3000 nM (exclusive). Items with GI50 beneath it return true; others return false.

For this compound, is GI50 lower than 3000 nM? COc1cc(C(=O)/C=C/c2c(-c3ccc(F)cc3)nc3sc(C)cn23)cc(OC)c1OC [Compound 19e]
false

hey, is GI50 for COc1cc(C(=O)/C=C/c2c(C(F)(F)F)nc3sccn23)cc(OC)c1OC lower than 3000 nM or not?
true

I'd appreciate it if you could check whether COc1ccc(C(=O)/C=C/c2c(C(F)(F)F)nc3sccn23)cc1OC has GI50 smaller than 3000 nM.
true

Hi there! Is GI50 for COc1ccc(-c2nc3sccn3c2/C=C/C(=O)c2cc(OC)c(OC)c(OC)c2)cc1 below 3000 nM, do you know?
false

###

Test system: MDA-MB-231/ATCC
Test: NCI in vitro cytotoxicity (SRB, 48 h), Breast panel
Type: cell-based
Conditions: Homo sapiens, Table 4, read-out: Comparative efficacy
Quantity: log10(IC50) (log10 of the value in nM)
Would you kindly interpret these values as log10 of IC50 expressed in nM?

Which log10(IC50) is reported with MDA-MB-231/ATCC for this entry: C1=Nc2c3c(ccc2=N1)=NCS3 [C, imidazobenzothiazole, reference compound] ?
4.64

Any idea what log10(IC50) came out for COc1ccc(C(=O)/C=C/c2c(C(F)(F)F)nc3sccn23)cc1OC on MDA-MB-231/ATCC?
2.88

Field: log10(IC50) (MDA-MB-231/ATCC). Entry: COc1cc(C(=O)/C=C/c2c(C(F)(F)F)nc3sccn23)cc(OC)c1OC
3.47

Requested read-out log10(IC50), target or system MDA-MB-231/ATCC, entry COc1cc(C(=O)/C=C/c2c(-c3ccc(F)cc3)nc3sccn23)cc(OC)c1OC
3.40

What value of log10(IC50) on MDA-MB-231/ATCC does COc1ccc(-c2nc3sccn3c2/C=C/C(=O)c2cc(OC)c(OC)c(OC)c2)cc1 have?
3.41

###

Quantity: GI50 (µM)
Record the value in µM, omitting the unit from your answer.

Report GI50 for COc1cc(C(=O)/C=C/c2c(-c3ccc(F)cc3)nc3sc(C)cn23)cc(OC)c1OC [Compound 19e] tested on SF-539.
6.23

Request body: readout GI50, system SF-539, query COc1ccc(-c2nc3sccn3c2/C=C/C(=O)c2cc(OC)c(OC)c(OC)c2)cc1 . Return the value.
1.66

Notebook entry, SF-539 assay: GI50 of COc1cc(C(=O)/C=C/c2c(-c3ccc(F)cc3)nc3sccn23)cc(OC)c1OC = ?
1.74

Requested read-out GI50, target or system SF-539, entry COc1ccc(C(=O)/C=C/c2c(C(F)(F)F)nc3sccn23)cc1OC
2.36

Form field - read-out: GI50; system: SF-539; submitted item: COc1cc(C(=O)/C=C/c2c(C(F)(F)F)nc3sccn23)cc(OC)c1OC
1.55

###

Tested on: CNS cancer cell lines
Assay: NCI in vitro cytotoxicity, whole panel
Type: cell-based
Conditions: Homo sapiens, CNS cell; exposure period of at least 48 hrs; read-out: GI50, range over CNS cell lines
Quantity: GI50

Please look up its GI50: COc1ccc(-c2nc3sccn3c2/C=C/C(=O)c2cc(OC)c(OC)c(OC)c2)cc1
1660 to 3540 nM

Consider the molecule COc1cc(C(=O)/C=C/c2c(C(F)(F)F)nc3sccn23)cc(OC)c1OC and give its measured GI50.
1380 to 2670 nM

Returns the measured GI50 for the input molecule. Input: COc1cc(C(=O)/C=C/c2c(-c3ccc(F)cc3)nc3sc(C)cn23)cc(OC)c1OC [Compound 19e]
2330 to 87800 nM

# query: GI50 of entry COc1ccc(C(=O)/C=C/c2c(C(F)(F)F)nc3sccn23)cc1OC
1870 to 6870 nM

Any idea what GI50 was measured for COc1cc(C(=O)/C=C/c2c(-c3ccc(F)cc3)nc3sccn23)cc(OC)c1OC ?
1740 to 3730 nM

###

Test system: SK-OV-3
Assay: NCI in vitro cytotoxicity (SRB, 48 h), Ovarian panel
Type: cell-based
Details: Homo sapiens; SK-OV-3, Ovarian; 48 h exposure
Record form. Attribute: GI50. Fill in for each entry.
All answers are understood in µM, so give the number only.

Entry under review: COc1cc(C(=O)/C=C/c2c(-c3ccc(F)cc3)nc3sccn23)cc(OC)c1OC . Reported GI50?
3.02

Which GI50 reading was recorded for the molecule COc1ccc(C(=O)/C=C/c2c(C(F)(F)F)nc3sccn23)cc1OC ?
3.41

Bench note: what GI50 did COc1ccc(-c2nc3sccn3c2/C=C/C(=O)c2cc(OC)c(OC)c(OC)c2)cc1 show?
3.28

Consider the molecule shown here: COc1cc(C(=O)/C=C/c2c(C(F)(F)F)nc3sccn23)cc(OC)c1OC What is its recorded GI50?
2.87

Fill in the blank: the reported GI50 of COc1cc(C(=O)/C=C/c2c(-c3ccc(F)cc3)nc3sc(C)cn23)cc(OC)c1OC [Compound 19e] is ____.
6.12

###

Listed here: compounds with reported log10 GI50 for SNB-75.
Plainly stated, the numbers are log10 of GI50 given in µM.

# query: log10 GI50 of entry COc1cc(C(=O)/C=C/c2c(C(F)(F)F)nc3sccn23)cc(OC)c1OC
0.27

# log10 GI50 lookup, item COc1ccc(C(=O)/C=C/c2c(C(F)(F)F)nc3sccn23)cc1OC
0.84

Which measured log10 GI50 value corresponds to COc1ccc(-c2nc3sccn3c2/C=C/C(=O)c2cc(OC)c(OC)c(OC)c2)cc1 ?
0.36

Look at this compound and give its reported log10 GI50. COc1cc(C(=O)/C=C/c2c(-c3ccc(F)cc3)nc3sc(C)cn23)cc(OC)c1OC [Compound 19e]
1.70

For the compound shown here, COc1cc(C(=O)/C=C/c2c(-c3ccc(F)cc3)nc3sccn23)cc(OC)c1OC , give the reported log10 GI50.
0.39

###

Test system: OVCAR-8
Test: NCI in vitro cytotoxicity (SRB, 48 h), Ovarian panel
Type: cell-based
Details: Homo sapiens; OVCAR-8, Ovarian; 48 h exposure
Quantity: GI50
Field: value (include unit after the number)

What is its GI50 for OVCAR-8? Entry: COc1cc(C(=O)/C=C/c2c(C(F)(F)F)nc3sccn23)cc(OC)c1OC
3080 nM

Please provide the recorded GI50 for COc1ccc(-c2nc3sccn3c2/C=C/C(=O)c2cc(OC)c(OC)c(OC)c2)cc1 , tested on OVCAR-8.
2010 nM

Param readout= GI50; system= OVCAR-8; entry= COc1cc(C(=O)/C=C/c2c(-c3ccc(F)cc3)nc3sccn23)cc(OC)c1OC ; returns value.
1980 nM

Write down the reported GI50 of COc1ccc(C(=O)/C=C/c2c(C(F)(F)F)nc3sccn23)cc1OC , test system: OVCAR-8.
2400 nM

Param readout= GI50; system= OVCAR-8; entry= COc1cc(C(=O)/C=C/c2c(-c3ccc(F)cc3)nc3sc(C)cn23)cc(OC)c1OC [Compound 19e] ; returns value.
4940 nM

###

System: MCF7
Experiment: NCI in vitro cytotoxicity (SRB, 48 h), Breast panel
Assay type: cell-based
Details: Homo sapiens; MCF7, Breast; 48 h exposure
The label is true (1) for GI50 below 2000 nM and false (0) for GI50 equal to or exceeding 2000 nM.

Regarding COc1cc(C(=O)/C=C/c2c(-c3ccc(F)cc3)nc3sc(C)cn23)cc(OC)c1OC [Compound 19e] , kindly confirm whether its GI50 is beneath 2000 nM.
true (1)

GI50 under 2000 nM? Item: COc1cc(C(=O)/C=C/c2c(-c3ccc(F)cc3)nc3sccn23)cc(OC)c1OC [Compound 7e]
false (0)

Consider COc1ccc(C(=O)/C=C/c2c(C(F)(F)F)nc3sccn23)cc1OC [Compound 8f] . Does its GI50 lie strictly below 2000 nM?
true (1)

Is GI50 strictly under 2000 nM for the entry COc1cc(C(=O)/C=C/c2c(C(F)(F)F)nc3sccn23)cc(OC)c1OC [Compound 7f] ?
true (1)

###

Hi there, I'd appreciate the recorded GI50 for every entry that follows.
Tested on: ACHN
Experiment: NCI in vitro cytotoxicity (SRB, 48 h), Renal panel
Type: cell-based
Conditions: Homo sapiens, 48 h exposure
Please give a number only; it is taken to be in µM.

# lookup: GI50 of COc1ccc(-c2nc3sccn3c2/C=C/C(=O)c2cc(OC)c(OC)c(OC)c2)cc1 [Compound 7a]
4.08

Form field: reported GI50 of COc1cc(C(=O)/C=C/c2c(-c3ccc(F)cc3)nc3sc(C)cn23)cc(OC)c1OC [Compound 19e]
5.83

What measured GI50 goes with COc1cc(C(=O)/C=C/c2c(C(F)(F)F)nc3sccn23)cc(OC)c1OC [Compound 7f] ?
1.82

Which GI50 value is on record for COc1cc(C(=O)/C=C/c2c(-c3ccc(F)cc3)nc3sccn23)cc(OC)c1OC [Compound 7e] ?
2.96

Data request, read-out GI50, for COc1ccc(C(=O)/C=C/c2c(C(F)(F)F)nc3sccn23)cc1OC [Compound 8f]
5.1
